Target: UniProt A0A1D8PH53
Assay: Assay for inhibition of CIV-CDK (CIV1) activity
Format: biochemical
Where a name gives a salt, the structure may show the parent alone.
measuredProperty: IC50 (nM)
Give bare numbers, in nM.

Example cases with answers are listed next.
compound	measuredProperty	result
N[C@H]1CC[C@H](Nc2nc(-n3ccc4ccccc43)c3nc[nH]c3n2)CC1 [Example 16, dihydrochloride]	IC50	310
Cl.Cl.N[C@H]1CC[C@H](Nc2nc(-n3cnc4ccccc43)c3nc[nH]c3n2)CC1 [Example 2, dihydrochloride]	IC50	500
COc1ccc2c(c1)ncn2-c1nc(N[C@H]2CC[C@H](N)CC2)nc2[nH]cnc12 [Example 15, dihydrochloride]	IC50	300

Below is a list of compounds. For each, state its recorded IC50.
1. Cl.Cl.N[C@H]1CC[C@H](Nc2nc(N3CCc4cc([N+](=O)[O-])ccc43)c3nc[nH]c3n2)CC1 [Example 30, dihydrochloride]
2. Cl.N[C@H]1CC[C@H](Nc2nc(-n3cnc4cc(Cl)c(Cl)cc43)c3nc[nH]c3n2)CC1 [Example 8, hydrochloride]

Response:
[100, 1300]

====

Target: CaCiv1 (Candida albicans, UniProt A0A1D8PH53)
Sequence (A0A1D8PH53 entry or part of it): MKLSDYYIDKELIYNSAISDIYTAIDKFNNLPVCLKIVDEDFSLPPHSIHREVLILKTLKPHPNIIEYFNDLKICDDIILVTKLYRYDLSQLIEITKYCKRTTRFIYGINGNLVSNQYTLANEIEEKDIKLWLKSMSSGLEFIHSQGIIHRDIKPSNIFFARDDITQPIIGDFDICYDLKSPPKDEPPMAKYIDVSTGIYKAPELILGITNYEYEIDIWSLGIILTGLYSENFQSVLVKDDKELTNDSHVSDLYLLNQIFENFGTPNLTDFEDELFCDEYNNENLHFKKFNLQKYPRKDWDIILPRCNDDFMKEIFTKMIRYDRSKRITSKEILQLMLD
Test: Assay for inhibition of CIV-CDK (CIV1) activity
Assay type: biochemical
Settings: CaCiv1 with Cdk2 substrate, [33P]ATP, 30 min ambient temperature; read-out: IC50 as micromolar
Assignment: determine reported pIC50 for the given molecules.
Numbers only, as −log10 of the molar value.

CN(C)c1ccc(NC(=O)Nc2ccc3c(c2)CCN3c2nc(N[C@H]3CC[C@H](N)CC3)nc3[nH]cnc23)cc1 5.89
Cc1cc2ncn(-c3nc(N[C@H]4CC[C@H](N)CC4)nc4[nH]cnc34)c2cc1C 5.96
CC(=O)c1ccc2c(c1)CCN2c1nc(N[C@H]2CC[C@H](N)CC2)nc2[nH]cnc12 5.44
OCC(CO)Nc1nc(-n2cnc3ccccc32)c2nc[nH]c2n1 5.41
N[C@H]1CC[C@H](Nc2nc(N3CCc4cc(Cl)ccc43)c3nc[nH]c3n2)CC1 5.44

Below is a list of molecules. For each, state its recorded pIC50.
1. O[C@H]1CC[C@H](Nc2nc(-n3cnc4ccccc43)c3nc[nH]c3n2)CC1
2. N[C@H]1CC[C@H](Nc2nc(N3CCc4ccc(C(F)(F)F)cc43)c3nc[nH]c3n2)CC1
3. N[C@H]1CC[C@H](Nc2nc(N3CCc4cc(NC(=O)Nc5ccc(Cl)c(Cl)c5)ccc43)c3nc[nH]c3n2)CC1
4. CC[C@@H](CO)Nc1nc(-n2cnc3ccccc32)c2nc[nH]c2n1

Response:
1: 6.41; 2: 6.70; 3: 5.36; 4: 5.37

Below is a list of molecules. For each, state its recorded pIC50.
1. N[C@H]1CC[C@H](Nc2nc(N3CCc4cc(NC(=O)Cc5cccs5)ccc43)c3nc[nH]c3n2)CC1
2. N[C@H]1CC[C@H](Nc2nc(-n3cnc4cc(OCc5ccccc5)ccc43)c3nc[nH]c3n2)CC1
3. Nc1ccc2c(c1)CCN2c1nc(N[C@H]2CC[C@H](N)CC2)nc2[nH]cnc12

Response:
[6.02, 5.77, 5.70]

Below is a list of molecules. For each, state its recorded pIC50.
1. N[C@H]1CC[C@H](Nc2nc(N3CCc4ccc([N+](=O)[O-])cc43)c3nc[nH]c3n2)CC1
2. N[C@H]1CC[C@H](Nc2nc(N3CCc4cc(NC(=O)CCc5ccccc5)ccc43)c3nc[nH]c3n2)CC1

Response:
1: 7.70; 2: 5.48

====

Biological target: PLK1 (Homo sapiens)
Sequence (P53350 whole entry, species assumed): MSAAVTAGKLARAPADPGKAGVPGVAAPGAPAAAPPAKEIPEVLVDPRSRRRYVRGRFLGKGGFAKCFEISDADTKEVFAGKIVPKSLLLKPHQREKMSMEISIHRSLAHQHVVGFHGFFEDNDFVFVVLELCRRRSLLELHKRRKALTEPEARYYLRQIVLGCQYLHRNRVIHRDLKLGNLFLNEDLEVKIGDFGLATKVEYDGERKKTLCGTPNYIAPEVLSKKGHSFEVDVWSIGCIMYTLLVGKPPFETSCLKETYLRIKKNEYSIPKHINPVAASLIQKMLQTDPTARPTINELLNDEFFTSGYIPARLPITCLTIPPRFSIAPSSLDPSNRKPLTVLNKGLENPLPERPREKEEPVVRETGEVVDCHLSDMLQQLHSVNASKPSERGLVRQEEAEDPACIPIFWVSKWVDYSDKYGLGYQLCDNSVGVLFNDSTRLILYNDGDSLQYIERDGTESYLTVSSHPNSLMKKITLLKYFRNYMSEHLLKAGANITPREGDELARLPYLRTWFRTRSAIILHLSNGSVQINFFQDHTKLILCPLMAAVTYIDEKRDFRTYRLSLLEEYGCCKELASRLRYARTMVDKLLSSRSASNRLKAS
measuredProperty: IC50
# include the unit after the value

Memo: OCC(CO)Nc1nc(-n2cnc3ccccc32)c2nc[nH]c2n1 , reported IC50: 160 nM

====

Where a name gives a salt, the structure may show the parent alone.
Endpoint: pIC50. System: GSK3beta (Homo sapiens). Items follow.
Sequence (P49841 whole entry, species assumed): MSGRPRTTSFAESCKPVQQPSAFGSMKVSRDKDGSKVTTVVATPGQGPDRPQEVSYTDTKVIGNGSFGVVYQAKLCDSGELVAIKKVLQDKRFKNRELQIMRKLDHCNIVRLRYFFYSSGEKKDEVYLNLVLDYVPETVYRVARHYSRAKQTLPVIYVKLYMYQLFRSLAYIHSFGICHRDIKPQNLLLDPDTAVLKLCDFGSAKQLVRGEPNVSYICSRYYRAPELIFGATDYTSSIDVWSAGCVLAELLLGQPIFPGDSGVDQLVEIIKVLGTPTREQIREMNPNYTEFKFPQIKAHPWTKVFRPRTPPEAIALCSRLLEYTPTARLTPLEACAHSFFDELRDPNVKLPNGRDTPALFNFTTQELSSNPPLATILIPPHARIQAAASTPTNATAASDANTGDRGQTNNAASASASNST
One number for each entry, as −log10 of the molar value.

Example cases with answers are listed next.
molecule	pIC50
CC1Cc2ccccc2N1c1nc(N[C@H]2CC[C@H](N)CC2)nc2[nH]cnc12 (stereo partly drawn) [Example 26, dihydrochloride]	5.89
Cl.Cl.N[C@H]1CC[C@H](Nc2nc(-n3cnc4ccccc43)c3nc[nH]c3n2)CC1 [Example 2, dihydrochloride]	6.22

Now for the molecule whose pIC50 we want.
Memo: Cl.Cl.N[C@H]1CC[C@H](Nc2nc(N3CCc4cc([N+](=O)[O-])ccc43)c3nc[nH]c3n2)CC1 [Example 30, dihydrochloride] , reported pIC50: 5.82

====

Biological target: UniProt:P53779
Sequence (P53779 whole entry): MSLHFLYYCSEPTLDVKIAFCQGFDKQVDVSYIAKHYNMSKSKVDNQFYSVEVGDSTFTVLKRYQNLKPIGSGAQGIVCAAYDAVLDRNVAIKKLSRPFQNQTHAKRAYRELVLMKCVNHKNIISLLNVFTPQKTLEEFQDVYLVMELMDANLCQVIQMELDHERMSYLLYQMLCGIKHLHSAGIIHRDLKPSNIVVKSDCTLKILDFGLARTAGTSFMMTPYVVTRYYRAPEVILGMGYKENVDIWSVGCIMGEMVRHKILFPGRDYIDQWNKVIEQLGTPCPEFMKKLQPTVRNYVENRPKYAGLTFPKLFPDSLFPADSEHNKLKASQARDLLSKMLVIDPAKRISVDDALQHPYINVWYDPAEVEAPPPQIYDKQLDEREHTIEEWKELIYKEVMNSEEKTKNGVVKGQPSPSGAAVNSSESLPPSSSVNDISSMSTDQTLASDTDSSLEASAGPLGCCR
Structures can show the parent of a compound that is named as a salt.
measuredProperty: IC50

compound	IC50
CC[C@@H](CO)Nc1nc(-n2cnc3ccccc32)c2nc[nH]c2n1	290 nM
Cl.N[C@H]1CC[C@H](Nc2nc(-n3cnc4cc(Cl)c(Cl)cc43)c3nc[nH]c3n2)CC1 [Example 8, hydrochloride]	840 nM
N[C@H]1CC[C@H](Nc2nc(N3CCc4cc(F)ccc43)c3nc[nH]c3n2)CC1 [Example 38, dihydrochloride]	420 nM
CC1Cc2ccccc2N1c1nc(N[C@H]2CC[C@H](N)CC2)nc2[nH]cnc12 (some centres unmarked) [Example 26, dihydrochloride]	310 nM

Now for the compound whose IC50 we want.
Memo: COc1ccc2c(c1)ncn2-c1nc(N[C@H]2CC[C@H](N)CC2)nc2[nH]cnc12 [Example 15, dihydrochloride] , reported IC50: 500 nM
